# Tested on: MOLT-4 leukemia
# method: NCI-60 one-dose screen, 48 h (100 = growth as untreated, 0 = no growth, -100 = all killed)
# conditions.used: 10 µM unless noted
Compounds without any hit were thinned out: in the full panel of roughly 83,000, 20% have a hit.
property.name: growth (%)

[[record]]
compound = "O=C1c2c(c3c4cc(O)ccc4oc3c3[nH]c4ccccc4c23)C(=O)N1O"
target_or_system = "MOLT-4 leukemia"
property_name = "growth"
units_label = "%"
observed_measurement = 4.76

[[record]]
compound = "CC1(C)CC[C@]2(C(=O)N3CCCN(CC#N)CC3)CC[C@]3(C)C(=CC[C@@H]4[C@@]5(C)CC[C@H](O)C(C)(C)[C@@H]5CC[C@]43C)[C@H]2C1"
target_or_system = "MOLT-4 leukemia"
property_name = "growth"
units_label = "%"
observed_measurement = 19.1

[[record]]
compound = "O=C(CSc1nnc(-c2cccs2)n1-c1ccccc1)Nc1ccc(F)cc1"
target_or_system = "MOLT-4 leukemia"
property_name = "growth"
units_label = "%"
observed_measurement = 85.6

[[record]]
compound = "COc1ccccc1/C=C/C=N/NC1=NC2C(S1)N(C)C(=O)N2c1ccccc1 (stereo not drawn)"
target_or_system = "MOLT-4 leukemia"
property_name = "growth"
units_label = "%"
observed_measurement = 4.1

[[record]]
compound = "Cc1cnc2nc(NN)[nH]n12"
target_or_system = "MOLT-4 leukemia"
property_name = "growth"
units_label = "%"
observed_measurement = 102

[[record]]
compound = "N#C/C(=C\\c1ccc(N2CCCCC2)cc1)C(=O)Nc1sc2c(c1C#N)CCC2"
target_or_system = "MOLT-4 leukemia"
property_name = "growth"
units_label = "%"
observed_measurement = 104

[[record]]
compound = "CCOc1ccc2nc(NC(=O)Nc3ccccc3C)sc2c1"
target_or_system = "MOLT-4 leukemia"
property_name = "growth"
units_label = "%"
observed_measurement = 34.5

[[record]]
compound = "COCCC[C@H]1O[C@@](O)([C@H](C)[C@@H]2CC(OC)C(O)/C=C(C)/C=C(C)/C=C(\\C)C(OC3O[C@@H](C)[C@H](O)C(O)[C@@H]3O)C(C)/C=C(C)/C=C(OC)/C=C(\\C)C(=O)O2)C(OC)C(O)[C@]1(C)O[C@H]1C[C@@H](O)[C@H](O[C@H]2C[C@](C)(O)[C@H](O)C(C)O2)C(C)O1 (stereo partly drawn)"
target_or_system = "MOLT-4 leukemia"
property_name = "growth"
units_label = "%"
observed_measurement = 47.8


---

# Tested on: NCI-H460 lung
# method: NCI-60 one-dose screen, 48 h (100 = growth as untreated, 0 = no growth, -100 = all killed)
# conditions.used: 10 µM unless noted
The panel holds about 83,000 compounds, 20% with a hit somewhere; the sample as a whole holds those more often.
property.name: growth (%)

[[record]]
test_smiles = "COc1ccc([C@H]2[C@H](O)C(=O)N2c2cc(OC)c(OC)c(OC)c2)cc1Cl"
target_or_system = "NCI-H460 lung"
observed_measurement = 1.57

[[record]]
test_smiles = "O=C(NCCCNc1cc(-c2cn(-c3ccccc3)nc2-c2cccc(O)c2)ccn1)Nc1ccc(F)cc1"
target_or_system = "NCI-H460 lung"
observed_measurement = 21.4

[[record]]
test_smiles = "CCn1c2ccc(/C=N/OCCCN(C)C)cc2c2cc(/C=N/OCCCN(C)C)ccc21"
target_or_system = "NCI-H460 lung"
observed_measurement = -3.59

[[record]]
test_smiles = "O=C(/C=C1\\C=CN(CCCCO)c2ccccc21)n1ccc2ccccc21"
target_or_system = "NCI-H460 lung"
observed_measurement = 103

[[record]]
test_smiles = "N#Cc1c(NC(=O)c2ccc(F)c(Cl)c2)sc2c1CCC(=O)C2"
target_or_system = "NCI-H460 lung"
observed_measurement = 4.07

[[record]]
test_smiles = "O=C(Cn1cc(CN2C(=O)c3ccc([N+](=O)[O-])cc3C2=O)nn1)Nc1ccc(F)cc1Cl"
target_or_system = "NCI-H460 lung"
observed_measurement = 106


---

# System: SK-OV-3 ovarian
# method: NCI-60 one-dose screen, 48 h (100 = growth as untreated, 0 = no growth, -100 = all killed)
# conditions.used: 10 µM unless noted
This is part of a sample that, as a whole, favours compounds with a hit. Of some 83,000 tested, about 20% had one in any assay.
Label rule met for high-side growth (at or above 80%) and rule not met for low-side growth (below it).

[[record]]
compound = "O=C1CC2(CCOCC2)Oc2ncccc21"
target_or_system = "SK-OV-3 ovarian"
category = "rule met"

[[record]]
compound = "CCN(CC)CCCC(C)NCC(=O)NC(c1ccc2c(c1)OCO2)c1cc(Cl)c2cccnc2c1O (stereo not drawn)"
target_or_system = "SK-OV-3 ovarian"
category = "rule not met"

[[record]]
compound = "Oc1ccccc1/C=N/Nc1nc(N/N=C/c2ccccc2O)nc(N2CCOCC2)n1"
target_or_system = "SK-OV-3 ovarian"
category = "rule not met"

[[record]]
compound = "CS(=O)(=O)c1nccc(-c2c(-c3ccc(F)c(OCCc4ccc(F)cc4)c3)nc3sccn23)n1"
target_or_system = "SK-OV-3 ovarian"
category = "rule met"

[[record]]
compound = "COc1ccc(-c2ccnc3c(C#N)c(Nc4ccccc4)nn23)cc1OC"
target_or_system = "SK-OV-3 ovarian"
category = "rule met"

[[record]]
compound = "C=C(C)[C@@H]1CC[C@]2(C)[C@H](CC=C3[C@@H]4CC(C)(C)CC[C@]4(C(=O)NCC#CCN4CCN(C)CC4)CC[C@]32C)[C@@]1(C)CCC#N"
target_or_system = "SK-OV-3 ovarian"
category = "rule met"

[[record]]
compound = "O=C(O)c1ccc(-n2cc(CNc3ccc(F)cc3)c(-c3ccc(C(F)(F)F)cc3)n2)cc1"
target_or_system = "SK-OV-3 ovarian"
category = "rule met"

[[record]]
compound = "CCCCSc1nnc(-c2ccc(-c3ccc(Cl)cc3)nc2C)o1"
target_or_system = "SK-OV-3 ovarian"
category = "rule met"

[[record]]
compound = "C/C(=C(/c1ccc(O)cc1)c1ccc(OCCN(C)C)cc1)c1ccc(Cl)cc1"
target_or_system = "SK-OV-3 ovarian"
category = "rule met"

[[record]]
compound = "O=C(NCCCNc1cc(-c2cn(-c3ccccc3)nc2-c2cccc(O)c2)ccn1)Nc1cccc(C(F)(F)F)c1"
target_or_system = "SK-OV-3 ovarian"
category = "rule not met"

[[record]]
compound = "CCOC(=O)C1=C(C)Nc2nnc(Nc3ccccc3)n2C1c1ccccc1 (stereo not drawn)"
target_or_system = "SK-OV-3 ovarian"
category = "rule met"

[[record]]
compound = "O=C(Nc1cccc(-c2nc(-c3ccc(NC(=O)c4cccs4)cc3Cl)no2)c1)Nc1ccc(NC(=O)C2CC2)c(C(F)(F)F)c1"
target_or_system = "SK-OV-3 ovarian"
category = "rule not met"

[[record]]
compound = "O=C1c2c(c3c4cccnc4[nH]c3c3ccc4ccccc4c23)C(=O)N1CCN1CCOCC1"
target_or_system = "SK-OV-3 ovarian"
category = "rule met"


---

Below: a set of entries, each annotated with reported growth.
# Tested on: NCI-H322M lung
# method: NCI-60 one-dose screen, 48 h (100 = growth as untreated, 0 = no growth, -100 = all killed)
# conditions.used: 10 µM unless noted
The panel holds about 83,000 compounds, 20% with a hit somewhere; the sample as a whole holds those more often. The source made the active and inactive calls. Rule for the calls: active = growth percent below 10; inactive = the rest.
property.name: growth

[[record]]
compound = "C(=C(\\C1=NCCN1)n1cnc2ccccc21)/c1ccc2ccccc2c1"
target_or_system = "NCI-H322M lung"
property_name = "growth"
observed_measurement = "73.2% (inactive)"

[[record]]
compound = "O=S(=O)(Nc1ccc2c(c1)OC(F)(F)O2)c1ccc(-c2cnc(C3CC3)o2)cc1"
target_or_system = "NCI-H322M lung"
property_name = "growth"
observed_measurement = "83.3% (inactive)"

[[record]]
compound = "COc1ccc(NC2=C(Cl)C(=O)C(C)=C(C)C2=O)cc1"
target_or_system = "NCI-H322M lung"
property_name = "growth"
observed_measurement = "100% (inactive)"

[[record]]
compound = "CNC(=O)c1cc(N2CCc3cc(NC(=O)Nc4ccc(Cl)c(Cl)c4)ccc32)ccn1"
target_or_system = "NCI-H322M lung"
property_name = "growth"
observed_measurement = "98.6% (inactive)"

[[record]]
compound = "CS(=O)(=O)c1ccc2c(c1)c1c(n2S(=O)(=O)c2ccc(Cl)cc2)CCCC1"
target_or_system = "NCI-H322M lung"
property_name = "growth"
observed_measurement = "49.1% (inactive)"

[[record]]
compound = "CC(C)N=C(N/C(N)=N/c1nc2ccccc2s1)NC(C)C"
target_or_system = "NCI-H322M lung"
property_name = "growth"
observed_measurement = "62.2% (inactive)"

[[record]]
compound = "CCc1ccc(NC(=O)N[C@@H](Cc2cccc(F)c2)C(=O)N[C@@H]2C(=O)N3CCC[C@H]3C(=O)N3CCCC[C@H]3C(=O)N[C@@H](CO)C(=O)N3C[C@H](C)C[C@H]3C(=O)O[C@H]2C)c(F)c1"
target_or_system = "NCI-H322M lung"
property_name = "growth"
observed_measurement = "51.1% (inactive)"

[[record]]
compound = "COc1ccc(Cn2cc3c(c2-c2cc(OC)c(OC)c(OC)c2)CCCc2cnoc2-3)cc1"
target_or_system = "NCI-H322M lung"
property_name = "growth"
observed_measurement = "39.6% (inactive)"

[[record]]
compound = "Nc1nc(-c2cccc([N+](=O)[O-])c2)c(N=Nc2cccc(Cl)c2)s1"
target_or_system = "NCI-H322M lung"
property_name = "growth"
observed_measurement = "75.1% (inactive)"

[[record]]
compound = "CCN1C(=O)N(CC)C2SC(N/N=C/c3ccc(F)cc3)=NC21 (stereo not given)"
target_or_system = "NCI-H322M lung"
property_name = "growth"
observed_measurement = "55.2% (inactive)"

